# Tested System: Fibroblast growth factor 2 (Homo sapiens) (UniProt P09038)
# Sequence (P09038 whole entry, looked up): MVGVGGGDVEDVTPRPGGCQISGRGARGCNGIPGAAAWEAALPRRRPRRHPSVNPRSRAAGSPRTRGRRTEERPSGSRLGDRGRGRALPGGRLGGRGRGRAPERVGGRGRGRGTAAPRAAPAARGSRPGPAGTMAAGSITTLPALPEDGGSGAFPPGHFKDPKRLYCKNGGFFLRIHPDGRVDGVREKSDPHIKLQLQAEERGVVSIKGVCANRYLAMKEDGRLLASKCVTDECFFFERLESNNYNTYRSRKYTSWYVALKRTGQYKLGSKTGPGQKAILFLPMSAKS
# Assay Notes: FGF2 binders on small-molecule microarrays, primary screen, biochemical, small-molecule microarray, 635/667 nm fluorescence (AID 1133)
# Recorded Conditions: small-molecule microarray binding, FGF2, fluorescence 635/667; higher = more signal

Molecule	composite z-score
COC(=O)C(CC#Cc1ccc2c(c1)[C@]1(C(=O)N2)[C@H](c2ccc(O)cc2)N2[C@H](c3ccccc3)[C@H](c3ccccc3)OC(=O)[C@H]2[C@@H]1C(=O)Nc1nc2ccccc2s1)C(=O)OC	1.22
O=C1OCC=C[C@H]2OC34C=CCN(CCN5CCOCC5)C(=O)[C@H]3N(CCCO)C(=O)[C@@H]4[C@@H]12 (stereo not given in full)	-0.344
COC(=O)[C@@]1(Cc2ccc(F)cc2)[C@H]2c3cc(C(=O)N4CCCC4)n(Cc4cc(C)n(C)n4)c3C[C@H]2CN1C(=O)c1ccccc1	-0.47
Cc1ccc(S[C@]2(C(=O)NCCN3CCOCC3)CC(=O)N(Cc3ccccc3Cl)[C@@H]2c2ccc(CO)cc2)cc1	-0.536
C=C(CCCC)C(=O)CC[C@H](OC(=O)c1cccnc1)c1ccccc1OCCO	1.32
CN1C(=O)C2C=CC(C(O)C3CCCCC3)N(Nc3ccc([N+](=O)[O-])cc3[N+](=O)[O-])C2C1=O (stereo not given)	0.0734
[N-]=[N+]=NCc1ccccc1C[C@]1(C(=O)NCC(O)CO)N=C(c2ccc(OCCCO)cc2)O[C@H]1c1ccccc1 (stereo not given in full)	-0.476
O=C1OCCC/C=C\[C@H]2OC34C=CCN(Cn5nnc6ccccc65)C(=O)[C@H]3N(CCCCCCO)C(=O)[C@@H]4C12 (stereo not given in full)	-1.58
CCCC[C@@H]1C[C@H]1[C@@H](NC(=O)c1ccco1)c1ccc(C(=O)OC)cc1	-1.42
COCCOC(=O)N1C(=O)[C@@]2(c3cc(C#CCCO)ccc31)[C@H](C(=O)N1CCc3cc(OC)c(OC)cc3C1)[C@H]1C(=O)O[C@H](c3ccccc3)[C@H](c3ccccc3)N1[C@@H]2c1ccc(O)cc1	0.622
CC(C)C(=C=CC[C@@H](O)c1ccccc1OCCO)CCO	0.853
CC(C)(C)OC(=O)CC[C@@]1(C(=O)NCC(O)CO)N=C(c2ccc(OCCCO)cc2)O[C@@H]1c1ccccc1N=[N+]=[N-] (stereo not given in full)	0.692
COC(=O)[C@@]1(Cc2ccc(F)cc2)[C@H]2c3cc(C(=O)N(C)C)n(Cc4ccc(S(C)(=O)=O)cc4)c3C[C@H]2CN1C(=O)c1ccccc1	0.0722
O=C1OCCC/C=C\[C@H]2OC34C=CCN(c5ccc6ccccc6c5)C(=O)[C@H]3N(CCCCCCO)C(=O)[C@@H]4C12 (stereo not given in full)	-0.943
CC1CC/C=C\[C@H]2OC34C=CCN(c5ccc(Cl)cc5)C(=O)[C@H]3N(CCO)C(=O)[C@]4(C)C2C(=O)O1 (stereo not given in full)	-0.492

###

# System: Inhibin beta A chain (activin A)
# Assay Notes: INHBA (activin A) binders on microarrays, primary screen, biochemical, small-molecule microarray, 635 nm fluorescence scan (AID 1107);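 note: mouse activin A protein probed at 4.33 µg/mL on printed slides; score merges bound-protein fluorescence near 667 nm with spot signal-to-noise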
# Recorded Conditions: small-molecule microarray binding, higher = more signal
Each item that follows carries a reported composite z-score.

Compound	composite z-score
CC(C)c1ccc(NN2C(C(O)C(c3ccccc3)c3ccccc3)C=CC3C(=O)N(c4ccccc4)C(=O)C32)cc1 (stereo not given)	0.203
C=C(C)C1C(=C)CN([C@H](CO)c2ccccc2)C1=O (stereo not given in full)	1.36
COc1ccc(C(O)C2C=CC3C(=O)NC(=O)C3N2Nc2ccccn2)cc1 (stereo not given)	0.371
COC(=O)[C@@]1(Cc2ccc(F)cc2)[C@H]2c3cc(C(=O)N4CCCC4)n(Cc4ccc(C)o4)c3C[C@H]2CN1C(=O)c1ccccc1	0.87
CC(=O)N1Cc2ccccc2C[C@@]2(COC(c3ccc(OCCCO)cc3)=N2)C1=O	1.09
